Sourced from patent US20210130455A1

Target: T1, human AQP3 on the cell surface (HaCaT cells, A431 cells, HEK293 cells stably overexpressing human AQP3) (human, UniProt Q92482 1-292)
T1 construct: whole, on cells; Membrane water channel; also called human aquaporin 3
T1 sequence (looked up): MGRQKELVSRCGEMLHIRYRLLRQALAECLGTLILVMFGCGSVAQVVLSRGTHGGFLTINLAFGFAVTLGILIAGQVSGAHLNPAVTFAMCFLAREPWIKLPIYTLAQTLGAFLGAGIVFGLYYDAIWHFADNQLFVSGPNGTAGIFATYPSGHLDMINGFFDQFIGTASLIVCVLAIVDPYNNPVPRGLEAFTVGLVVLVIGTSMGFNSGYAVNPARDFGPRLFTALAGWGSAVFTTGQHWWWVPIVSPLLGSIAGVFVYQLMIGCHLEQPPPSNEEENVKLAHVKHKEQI
Experiment: fluorescence of a labelled secondary antibody on HaCaT cells; antibody at 10 µg/mL
Readout kind: binding result

Known binding result results, listed for orientation:
# Binder, binding result
data = [
    ("antibody H (antibody, mouse IgG2a, kappa, V domains shown, also called anti AQP3 mAb H) VH: EVKLVESGGDLVKPGGSLKLSCAASGFTFSSYGMSWVRQTPDKRLEWVATISRRSIYTYYPDSVQGRFTISRDNAKNTLYLQMSSLKSEDTAMYYCARLSLYDYDGARYTMDYWGQGTSVTVSS VL: DIKMTQSPKFMSTSVGDRVSITCKASQDVGTAVAWYQQKPGQSPKLLIYWASTRHTGVPDRFTGSGSGTDFTLTISNVQSEDLADYFCQQYSSYHTFGAGTKLEIKR", "binds"),
    ("antibody D (antibody, mouse IgG2a, kappa, V domains shown, also called anti AQP3 mAb D) VH: EVQLQQSGAELVRPGASVTLSCKASGYTFTDYEMHWVQQTPVHGLEWIGGIDPETGGTGYNQKFKGKAILTADKSSSTAYMELRSLTSEDSAVYFCTRHGSYAMDYWGQGTSVTVSS VL: DIVMTQSPKFMSTSVGDRVSITCKASQDVSTAVAWYQQKPGQSPKLLIYWASTRHTGVPDRFTGSGSGTDYTLTISSVQAEDLALYYCQQHYSTPPTFGGGTRLEIKR", "binds"),
    ("antibody J (antibody, mouse IgG2a, kappa, V domains shown, also called anti AQP3 mAb J; Ab) VH: QVHLQQSGTELVKPGASVKLSCEASGYTFTSYWMHWVKQRPGQGLEWIGNINPSNGGTNYNEKFKSKATLTVDKSSSTAYMQLSSLTSEDSAVYYCARGGIYYGNYDYYAMDYWGQGTSVTVSS VL: DIVMTQAAPSVPVTPGESVSISCRSSKSLLHSNGNTYLYWFLQRPGQSPQLLIYRVSNLASGVPDRFSGSGSGTAFTLRISRVEAEDVGVYYCMQHLEYPFTFGGGTKLEIKR", "binds"),
    ("antibody E (antibody, mouse IgG2a, kappa, V domains shown, also called anti AQP3 mAb E) VH: EVKLLESGAELVRPGASVTLSCKASGYTFTDYEMHWVKQTPVHGLEWIGGIDPESGGTGYNQKFKGKAILTADKSSSTAYMELRSLTSEDSAVYFCTRSGYYGSPLLDYWGQGTTLTVSS VL: QIVLSQSPAIMSASLGERVTMTCTASSSVSSSYLHWYQQKPGSSPKLWIYSTSNLASGVPARFSGSGSGTSYSLTISSMEAEDAATYYCHQYHRSPPTFGAGTKLEIKR", "binds"),
]

Alright, here's another binder for you.
Looking up antibody C (antibody, mouse IgG2a, kappa, V domains shown, also called anti AQP3 mAb C) VH: QVQLKQSGAELARPGASVKLSCKASGYNFKSYGISWVKQRTGQGLEWIGEIYPGSGNTYYNEKLKGKATLTADKSSSTAYMELRSLTSEDSAVYFCARTYGYDSFPWFAYWGQGTLVTVSS VL: DIVMTQAAPSVPVTPGESVSISCRSSKSLLHSNGNTYLYWFLQRPGQSPQLLIYRVSNLASGVPDRFSGSGSGTAFTLRISRVEAEDEGVYYCMQHLEYPFTFGAGTKLEIKR , I found its binding result recorded as binds
